observed-property: TC50

# lookup: ISIS 5674: TT GGGG TT GGGG, P = S, SEQ ID NO 41 (TTGGGGTTGGGG; all phosphorothioate, sugars by position not given here) on CEM cell line, TC50 = >200 µM

# lookup: ISIS 5675: TT GGGG TT GGGG TT, P = S, SEQ ID NO 40 (TTGGGGTTGGGGTT; all phosphorothioate, sugars by position not given here) on CEM cell line, TC50 = 14 µM

# lookup: ISIS 5590: GGGG TT GGGG, P = O, SEQ ID NO 46 (GGGGTTGGGG; all phosphodiester, sugars by position not given here) on CEM cell line, TC50 = 20 µM

# lookup: ISIS 5653: TT GGGG TT GGGG TT GGGG, P = S, SEQ ID NO 38 (TTGGGGTTGGGGTTGGGG; all phosphorothioate, sugars by position not given here) on CEM cell line, TC50 = 27 µM

# lookup: ISIS 5667: TT GGGG TT GGGG TT, P = O, SEQ ID NO 56 (TTGGGGTTGGGGTT; all phosphodiester, sugars by position not given here) on CEM cell line, TC50 = 5.6 µM

# lookup: ISIS 5366: TTGGGGTTGGGGTTGGGGTTG GGGG, P = S, SEQ ID NO 33 (TTGGGGTTGGGGTTGGGGTTGGGGG; all phosphorothioate, sugars by position not given here) on CEM cell line, TC50 = 22 µM

# lookup: ISIS 5668: TT GGGG TT GGGG, P = O, SEQ ID NO 57 (TTGGGGTTGGGG; all phosphodiester, sugars by position not given here) on CEM cell line, TC50 = 5.2 µM

====

- target-or-test-system: human type II phospholipase A2 (Homo sapiens)
- Sequence (P14555 21-144): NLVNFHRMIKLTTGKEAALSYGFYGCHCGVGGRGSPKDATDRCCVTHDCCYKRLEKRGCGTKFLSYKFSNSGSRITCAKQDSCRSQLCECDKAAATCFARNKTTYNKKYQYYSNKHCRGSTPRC
- assay-procedure: Human type II phospholipase A2 enzyme assay (3H-oleic acid labelled E. coli substrate)
- Format: biochemical
- condition: 1 μM; Table 5, two separate experiments
Strand notation (5' to 3'): a small letter for the sugar, then the base; units joined by * are phosphorothioate-linked, units joined directly phosphodiester-linked; [ ] holds rarer units or linkages, { } end groups; capitals alone tell only the bases. d = 2'-deoxy (DNA)
Exercise: state measured % Inhibition (1 μM) for each of the substances provided.
// units = %; emit number, no label

Entry TAG AAG GGC TCC: truncated version of ISIS 3196, SEQ ID NO 101 (dT*dA*dG*dA*dA*dG*dG*dG*dC*dT*dC*dC) , % Inhibition (1 μM) reported as 0

Entry ISIS 4946: GGG TGG GAA TAG, SEQ ID NO 107 (dG*dG*dG*dT*dG*dG*dG*dA*dA*dT*dA*dG; aptamer) , % Inhibition (1 μM) reported as 73.2

Entry ISIS 4955: GGG AGG GTA TAG, SEQ ID NO 104 (dG*dG*dG*dA*dG*dG*dG*dT*dA*dT*dA*dG; aptamer) , % Inhibition (1 μM) reported as 97.5

Entry TGG GTA TAG AAG GGC: truncated version of ISIS 3196, SEQ ID NO 102 (dT*dG*dG*dG*dT*dA*dT*dA*dG*dA*dA*dG*dG*dG*dC) , % Inhibition (1 μM) reported as 33.5

Entry GTA TAG AAG GGC TCC: truncated version of ISIS 3196, SEQ ID NO 100 (dG*dT*dA*dT*dA*dG*dA*dA*dG*dG*dG*dC*dT*dC*dC) , % Inhibition (1 μM) reported as 9.2

Entry ISIS 4957: GGG TGG ATA TAG, SEQ ID NO 106 (dG*dG*dG*dT*dG*dG*dA*dT*dA*dT*dA*dG; aptamer) , % Inhibition (1 μM) reported as 81.9

Entry ISIS 4717: GG GGT TGG GG, P = S, SEQ ID NO 26 (GGGGTTGGGG; all phosphorothioate, sugars by position not given here) , % Inhibition (1 μM) reported as 83.1

Entry GGG TGG GTA TAG AAG GGC: truncated version of ISIS 3196, SEQ ID NO 97 (dG*dG*dG*dT*dG*dG*dG*dT*dA*dT*dA*dG*dA*dA*dG*dG*dG*dC) , % Inhibition (1 μM) reported as 85.3

Entry GGG TGG GTA TAG AAG: truncated version of ISIS 3196, SEQ ID NO 98 (dG*dG*dG*dT*dG*dG*dG*dT*dA*dT*dA*dG*dA*dA*dG) , % Inhibition (1 μM) reported as 82.5

Entry ISIS 4962: GGG TGG GTA T, SEQ ID NO 108 (dG*dG*dG*dT*dG*dG*dG*dT*dA*dT) , % Inhibition (1 μM) reported as 36.3

Entry ISIS 4947: AGG TGG GTA TAG, SEQ ID NO 103 (dA*dG*dG*dT*dG*dG*dG*dT*dA*dT*dA*dG; aptamer) , % Inhibition (1 μM) reported as 22.7

Entry TGG GTA TAG AAG GGC TCC: truncated version of ISIS 3196, SEQ ID NO 99 (dT*dG*dG*dG*dT*dA*dT*dA*dG*dA*dA*dG*dG*dG*dC*dT*dC*dC) , % Inhibition (1 μM) reported as 84.6

Entry ISIS 4956: GGG CGG GTA TAG, SEQ ID NO 105 (dG*dG*dG*dC*dG*dG*dG*dT*dA*dT*dA*dG; aptamer) , % Inhibition (1 μM) reported as 92.0
